B1: library; numbered along this chain (parent)
chain: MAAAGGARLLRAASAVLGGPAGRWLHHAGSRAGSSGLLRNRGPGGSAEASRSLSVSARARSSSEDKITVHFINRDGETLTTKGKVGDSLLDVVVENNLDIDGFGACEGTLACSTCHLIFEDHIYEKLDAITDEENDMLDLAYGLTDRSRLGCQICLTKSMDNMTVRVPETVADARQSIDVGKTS

variants of: B1; test: scaled log2 fold change in cell abundance, elesclomol vs control (0 = silent mean, 1 = nonsense mean) (scaled log2 ratio); higher = higher viability under elesclomol (loss of FDX1 cuproptosis function); details: with ABC1 FDX1 KO; elesclomol 5 nM; glucose 10 mM; 14 days;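 also: variant abundance is its share of total variant reads in each endpoint sample, from next-generation sequencing of the integrated ORF PCR-amplified out of genomic DNA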
Cut-off 0.07 on scaled log2 fold change, inclusive. At or above means MET; below means NOT MET.

Study these solved cases before continuing.
- V171Q: NOT MET
- T68C: MET
- K126Y: NOT MET
- L79G: MET
- T164F: NOT MET

Task: Entry L10V : is its scaled log2 fold change no less than 0.07?
Result: MET

The reported measurements were obtained from the supplement of paper PMC12855868.
